molecular target: Neuronal acetylcholine receptor subunit alpha-7 (Homo sapiens, UniProt P36544); assay: Competitive antagonist activity at human alpha7 nAChR expressed in Xenopus oocyte assessed as inhibition of ACh-induced current by voltage clamp method; format: functional
Sequence (P36544 whole entry): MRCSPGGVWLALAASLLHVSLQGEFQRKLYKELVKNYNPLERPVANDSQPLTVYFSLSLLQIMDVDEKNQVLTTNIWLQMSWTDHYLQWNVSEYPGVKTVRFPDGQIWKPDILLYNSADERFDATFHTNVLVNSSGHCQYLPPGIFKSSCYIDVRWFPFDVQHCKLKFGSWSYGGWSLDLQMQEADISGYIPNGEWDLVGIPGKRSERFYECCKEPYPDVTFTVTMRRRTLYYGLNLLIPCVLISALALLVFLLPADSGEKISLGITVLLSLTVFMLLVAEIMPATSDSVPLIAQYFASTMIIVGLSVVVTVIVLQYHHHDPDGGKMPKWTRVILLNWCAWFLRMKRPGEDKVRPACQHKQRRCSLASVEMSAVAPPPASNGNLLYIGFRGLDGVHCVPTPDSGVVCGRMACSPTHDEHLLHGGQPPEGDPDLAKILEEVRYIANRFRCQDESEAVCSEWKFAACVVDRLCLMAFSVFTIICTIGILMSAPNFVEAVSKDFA
observed-property: IC50 (µM)
Numbers only, in µM.

Simply: O=C(Oc1ccc(Br)cc1)N1CCCN2CCC[C@H]2C1 , Neuronal acetylcholine receptor subunit alpha-7 (Homo sapiens, UniProt P36544), IC50 = 5.6

* * *

target: Neuronal acetylcholine receptor subunit alpha-7 (Homo sapiens, UniProt P36544); test: Partial agonist activity at human alpha7 nAChR expressed in Xenopus oocyte […] current by voltage clamp method
observed-property: EC50 (µM)
One number for each entry, in µM.

Value of measured EC50 for the entry O=C(Oc1ccc(Br)cc1)N1CCN2CCC1CC2 [SSR180711] : 4.4
